Give measured kon for each item. Keep answers brief.
Biological target: T1, human MSR1 extracellular domain expressed with a N-terminal nonahistidine tag (His9-hMSR1); R&D Systems, Cat … (human, UniProt P21757 77-451)
T1 construct: extracellular domain; also called His-hMSR1; 9xHis-hMSR1; not shown: N-terminal nonahistidine tag
T1 sequence (looked up): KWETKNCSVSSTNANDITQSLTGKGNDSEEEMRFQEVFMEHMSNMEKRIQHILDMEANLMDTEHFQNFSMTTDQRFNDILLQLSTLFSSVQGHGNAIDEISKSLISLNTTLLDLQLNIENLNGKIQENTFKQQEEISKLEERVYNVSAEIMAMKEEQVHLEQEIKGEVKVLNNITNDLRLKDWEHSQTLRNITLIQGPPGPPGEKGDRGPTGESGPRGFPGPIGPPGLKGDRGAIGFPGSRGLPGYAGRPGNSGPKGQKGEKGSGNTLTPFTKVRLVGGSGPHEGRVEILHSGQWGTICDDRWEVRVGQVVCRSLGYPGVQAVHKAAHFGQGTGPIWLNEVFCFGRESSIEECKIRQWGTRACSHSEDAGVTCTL
Assay: SPR Biacore, 37 C, antibody captured
Hi! Could you send only the number? It should be in M⁻¹ s⁻¹, unit omitted.

Q. Item H1H27729P-N297Q (antibody, V domains shown, Human IgG1 Fc with N297Q point mutation) VH: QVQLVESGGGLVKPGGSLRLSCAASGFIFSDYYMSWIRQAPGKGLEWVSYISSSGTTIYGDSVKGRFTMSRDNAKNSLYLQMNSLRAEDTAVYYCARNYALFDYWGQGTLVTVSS VL: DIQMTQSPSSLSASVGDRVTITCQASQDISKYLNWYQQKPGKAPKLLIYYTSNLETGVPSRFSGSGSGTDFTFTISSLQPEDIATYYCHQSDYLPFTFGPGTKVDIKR has what recorded kon?
A. 239000

Q. Value lookup for kon; key = H1H27754P-N297Q (antibody, V domains shown, Human IgG1 Fc with N297Q point mutation) VH: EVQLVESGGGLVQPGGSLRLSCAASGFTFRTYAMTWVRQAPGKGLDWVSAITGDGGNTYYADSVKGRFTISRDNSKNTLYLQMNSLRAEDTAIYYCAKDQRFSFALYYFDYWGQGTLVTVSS VL: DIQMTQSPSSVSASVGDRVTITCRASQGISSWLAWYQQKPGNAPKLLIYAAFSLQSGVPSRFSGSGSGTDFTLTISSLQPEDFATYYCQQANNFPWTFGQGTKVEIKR
A. 663000

Q. Value lookup for kon; key = H1H27747P-N297Q (antibody, V domains shown, Human IgG1 Fc with N297Q point mutation) VH: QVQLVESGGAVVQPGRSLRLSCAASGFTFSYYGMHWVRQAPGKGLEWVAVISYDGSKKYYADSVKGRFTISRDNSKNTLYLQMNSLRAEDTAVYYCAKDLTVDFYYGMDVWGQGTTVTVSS VL: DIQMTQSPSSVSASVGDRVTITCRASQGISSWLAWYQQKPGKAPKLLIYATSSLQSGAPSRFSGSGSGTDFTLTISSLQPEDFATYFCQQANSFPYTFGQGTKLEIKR
A. 513000
